Recorded values, source patent US20260035367A1.

molecular target: Recombinant human PKC-delta (His-tagged 345-676) (Homo sapiens); construct: PKC-delta (His-tagged 345-676); His; experiment: PKC-delta inhibition assay (HTRF KinEASE kit); type: biochemical; details: ratio, PKC-theta vs PKC-delta HTRF
Sequence (Q05655 345-676): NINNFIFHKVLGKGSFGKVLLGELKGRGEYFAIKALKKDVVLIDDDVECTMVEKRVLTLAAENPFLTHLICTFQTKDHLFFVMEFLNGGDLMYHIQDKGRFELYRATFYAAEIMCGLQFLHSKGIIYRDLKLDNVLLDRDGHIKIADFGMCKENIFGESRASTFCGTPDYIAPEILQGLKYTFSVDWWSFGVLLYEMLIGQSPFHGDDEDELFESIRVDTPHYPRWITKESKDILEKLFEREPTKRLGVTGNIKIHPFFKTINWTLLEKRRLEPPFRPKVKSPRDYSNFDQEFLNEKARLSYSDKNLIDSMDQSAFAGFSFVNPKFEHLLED
Values of PKC-theta/PKC-delta selectivity greater than or equal to 6 map to Fulfilled; values below map to Not fulfilled.

- O=c1[nH]c2nccc(-c3cccc(N4CCNCC4c4cccnc4)c3)c2[nH]1 (centres unmarked) [Example 12]: Not fulfilled
- C[C@H]1CNCCN1c1cc(C(F)(F)F)cc(-c2ccnc3c2[C@](C)(O)C(=O)N3)n1 (single isomer, unassigned) [Example 93]: Fulfilled
- C[C@@H](O)[C@H]1CN(c2cc(C(F)(F)F)cc(-c3ccnc4c3C(C)(C)C(=O)N4)n2)CCN1 [Example 116]: Fulfilled
- CC1(C)C(=O)Nc2nccc(-c3cc(C(F)(F)F)cc(N4CCNC(C(C)(C)O)C4)n3)c21 (centres unmarked) [Example 124]: Fulfilled
- CC1C(=O)Nc2nccc(-c3cccc(CN(C)C)c3)c21 (centres unmarked) [Example 22]: Not fulfilled
- CC[C@H]1CN(c2cccc(-c3ccnc4c3C(C)(CC)C(=O)N4)n2)CCN1 (some centres unmarked) [Example 148]: Not fulfilled
- C[C@@]1(O)C(=O)Nc2nccc(-c3cc(C(F)(F)F)cc(N4CCNC5CC54)n3)c21 (single isomer, unassigned) [Example 96]: Fulfilled

###

List of IC50 values.
target: Recombinant human PKC-theta (His-tagged 362-706) (Homo sapiens); construct: Recombinant human PKC-theta (His-tagged 362-706); His; test: PKC-theta inhibition assay (HTRF KinEASE kit); assay type: biochemical; details: ATP 6.5 μM; STK substrate 525 nM; binned A to H; read-out: PKC-theta HTRF pIC50 (binned) (converted)
readout-kind: IC50

* CC1C(=O)Nc2nccc(-c3cccc(CN4CCNCC4)c3)c21 (stereo not shown) [Example 19] | 0.1 to 0.316 µM
* CC1C(=O)Nc2ncnc(-c3cccc(N4CCNCC4)c3)c21 (stereo not shown) [Example 24] | 0.316 to 1 µM
* COc1cc(-c2ccnc3[nH]c(=O)[nH]c23)cc(N2CCNCC2)c1 [Example 9] | > 1 µM
* C[C@@H]1CN(c2cccc(-c3ccnc4c3C(C)(C)C(=O)N4)c2)CCN1 [Example 54] | 0.0316 to 0.1 µM
* CC[C@]1(C)C(=O)Nc2nccc(-c3cc(Cl)cc(N4CCN[C@@H](C)C4)n3)c21 (single isomer, unassigned) [Example 171] | 0.001 to 0.00316 µM
* C[C@H]1CN(c2cccc(-c3ccnc4c3C(C)(C)C(=O)N4)c2)CCN1 [Example 52] | 0.1 to 0.316 µM
* C[C@@H]1CN(c2cc(Cl)cc(-c3ccnc4c3C(C)(O)C(=O)N4)c2)CCN1 (stereo partly shown) [Example 76] | 0.0316 to 0.1 µM

###

The molecules listed here are annotated with their IC50.
molecular target: Recombinant human PKC-theta (His-tagged 362-706) (Homo sapiens, UniProt Q04759); construct: Recombinant human PKC-theta (His-tagged 362-706); His; assay: PKC-theta inhibition assay (HTRF KinEASE kit); assay type: biochemical; conditions: ATP 6.5 μM; STK substrate 525 nM; binned A to H; read-out: PKC-theta HTRF pIC50 (binned) (converted)
Sequence (Q04759 362-706): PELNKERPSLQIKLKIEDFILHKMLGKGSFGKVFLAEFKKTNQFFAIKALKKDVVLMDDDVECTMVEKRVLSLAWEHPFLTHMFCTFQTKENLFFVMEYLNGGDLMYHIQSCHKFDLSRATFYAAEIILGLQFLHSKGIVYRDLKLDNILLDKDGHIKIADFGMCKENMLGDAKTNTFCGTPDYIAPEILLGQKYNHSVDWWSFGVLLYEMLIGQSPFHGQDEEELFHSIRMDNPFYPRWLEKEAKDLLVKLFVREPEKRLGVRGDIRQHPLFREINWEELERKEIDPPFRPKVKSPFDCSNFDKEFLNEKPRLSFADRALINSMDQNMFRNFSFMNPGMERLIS
readout-kind: IC50

• CC[C@H]1CN(c2ccc(Cl)c(-c3ccnc4c3C(O)(CC)C(=O)N4)n2)CCN1 (some centres unmarked) [Example 132] = 100 to 316 nM
• CC1(C)C(=O)Nc2nccc(-c3cc(Cl)cc(N4CCNCC4C(F)F)n3)c21 (centres unmarked) [Example 159] = 1 to 3.16 nM
• CC1(C)C(=O)Nc2nccc(-c3cccc(N4CCNCC4)n3)c21 [Example 38] = 3.16 to 10 nM
• CC1(O)C(=O)Nc2nccc(-c3cc(Cl)cc(N4CCNCC4)c3)c21 (centres unmarked) [Example 55] = 10 to 31.6 nM
• CC1(C)C(=O)Nc2nccc(-c3cccc(N(CC4COC4)C4CCCNC4)c3)c21 (centres unmarked) [Example 26] = 100 to 316 nM
• CC1(O)C(=O)Nc2nccc(-c3cc(F)cc(N4CCNCC4)c3)c21 (centres unmarked) [Example 46] = 10 to 31.6 nM
• O=c1[nH]c2nccc(-c3cc(F)cc(N4CCNCC4)c3)c2[nH]1 [Example 7] = 100 to 316 nM
• C[C@@H]1CN(c2cc(C(F)(F)F)cc(-c3ccnc4c3[C@](C)(O)C(=O)N4)n2)[C@@H](C)CN1 (single isomer, unassigned) [Example 118] = 10 to 31.6 nM

###

molecular target: Recombinant human PKC-theta (His-tagged 362-706) (Homo sapiens); construct: Recombinant human PKC-theta (His-tagged 362-706); His; experiment: PKC-theta inhibition assay (HTRF KinEASE kit); format: biochemical; settings: ATP 6.5 μM; STK substrate 525 nM; read-out: PKC-theta HTRF pIC50 (converted)
readout-kind: IC50 (nM)

- Cc1cc(-c2ccnc3c2C(C)(C)C(=O)N3)cc(N2CCNCC2)c1 [Example 61]: 50.1
- CC[C@]1(C)C(=O)Nc2nccc(-c3cc(C(F)(F)F)cc(N4CCN[C@@H](C)C4)n3)c21 (single isomer, unassigned) [Example 153]: 3.16
- CC[C@]1(C)C(=O)Nc2nccc(-c3cc(Cl)cc(N4CCNC[C@H]4C)n3)c21 (single isomer, unassigned) [Example 165]: 6.31
- C[C@@]1(O)C(=O)Nc2nccc(-c3cc(Cl)cc(N4CCNCC(F)C4)n3)c21 (single isomer, unassigned) [Example 91]: 6.31

###

target: Recombinant human PKC-theta (His-tagged 362-706) (Homo sapiens); construct: Recombinant human PKC-theta (His-tagged 362-706); His; test: PKC-theta inhibition assay (HTRF KinEASE kit); assay type: biochemical; settings: ATP 6.5 μM; STK substrate 525 nM; binned A to H; read-out: PKC-theta HTRF pIC50 (binned) (converted)
readout-kind: IC50

- C[C@H]1CNCCN1c1cc(-c2ccnc3c2C(C)(C)C(=O)N3)ccn1 [Example 31]: 316 to 1000 nM
- CC[C@@]1(C)C(=O)Nc2nccc(-c3cc(Cl)cc(N4CCN[C@@H](C)C4)n3)c21 (single isomer, unassigned) [Example 170]: 3.16 to 10 nM
- C[C@@H]1CN(c2cc(C(C)(F)F)cc(-c3ccnc4c3C(C)(C)C(=O)N4)n2)CCCN1 [Example 204]: 3.16 to 10 nM
- CC[C@H]1CN(c2cc(Cl)cc(-c3ccnc4c3[C@@](C)(OC)C(=O)N4)n2)CCN1 (single isomer, unassigned) [Example 151]: 10 to 31.6 nM
- CC1(C)C(=O)Nc2nccc(-c3cc(C(F)(F)F)cc(C4(CO)CCNC4)n3)c21 (stereo not drawn) [Example 70]: 1 to 3.16 nM
- O=c1[nH]c2nccc(-c3cc(N4CCNCC4)ccn3)c2[nH]1 [Example 16]: > 1000 nM
- CC1(C)C(=O)Nc2nccc(-c3cc(C(F)(F)F)cc(N4CCNC5(CC5)C4)n3)c21 [Example 84]: 3.16 to 10 nM
- C[C@@]1(O)C(=O)Nc2nccc(-c3cc(Cl)cc(N4CCNCC(F)C4)n3)c21 (single isomer, unassigned) [Example 91]: 3.16 to 10 nM
- COC1(C)C(=O)Nc2nccc(-c3cc(C(F)(F)F)cc(N4CCN[C@@H](C)C4)n3)c21 (stereo partly drawn) [Example 112]: 10 to 31.6 nM
- CO[C@]1(C)C(=O)Nc2nccc(-c3cc(Cl)cc(N4CCNC[C@H]4C)n3)c21 (single isomer, unassigned) [Example 172]: 3.16 to 10 nM
- C[C@@H]1CNCCN1c1cc(C(F)(F)F)cc(-c2ccnc3c2[C@](C)(O)C(=O)N3)n1 (single isomer, unassigned) [Example 94]: 1 to 3.16 nM
- C[C@H]1CNCCN(c2cc(C(F)(F)F)cc(-c3ccnc4c3C(C)(C)C(=O)N4)n2)C1 [Example 181]: 10 to 31.6 nM
- C[C@@H]1CNC[C@H](C)N1c1cc(C(F)(F)F)cc(-c2ccnc3c2C(C)(C)C(=O)N3)n1 [Example 179]: 3.16 to 10 nM
- C[C@@H]1CNCCCN1c1cc(C(F)(F)F)cc(-c2ccnc3c2C(C)(C)C(=O)N3)n1 [Example 190]: 3.16 to 10 nM
- CC1(C)C(=O)Nc2nccc(-c3cc(N4CCNCC4)cc(C(F)(F)F)c3)c21 [Example 37]: 31.6 to 100 nM

###

molecular target: Recombinant human PKC-theta (His-tagged 362-706) (Homo sapiens); construct: Recombinant human PKC-theta (His-tagged 362-706); His; experiment: PKC-theta inhibition assay (HTRF KinEASE kit); assay type: biochemical; conditions: ATP 6.5 μM; STK substrate 525 nM; read-out: PKC-theta HTRF pIC50 (converted)
IC50 strictly under 500 nM means 1; at 500 nM or over means 0.

* C[C@H](O)[C@@H]1CN(c2cc(C(F)(F)F)cc(-c3ccnc4c3C(C)(C)C(=O)N4)n2)CCN1 [Example 121] | 1
* CC[C@@]1(C)C(=O)Nc2nccc(-c3cc(Cl)cc(N4CCN[C@@H](C)C4)n3)c21 (single isomer, unassigned) [Example 170] | 1
* C[C@@H]1CN(c2cc(C(F)(F)F)cc(-c3ccnc4c3C(C)(C)C(=O)N4)n2)CCCN1 [Example 186] | 1
* O=c1[nH]c2nccc(-c3cccc(N4CCNCC4c4cccnc4)c3)c2[nH]1 (centres unmarked) [Example 12] | 0
* C[C@@]1(O)C(=O)Nc2nccc(-c3cc(F)cc(N4CCNCC4)c3)c21 (single isomer, unassigned) [Example 63] | 0
* C[C@H]1CN(c2cc(-c3ccnc4c3C(C)(O)C(=O)N4)cc(C(F)(F)F)c2)CCN1 (some centres unmarked) [Example 78] | 1
* CCC1(C)C(=O)Nc2nccc(-c3cc(F)cc(N4CCNCC4)c3)c21 (centres unmarked) [Example 33] | 1
